System: human tumor cell line (HTCL) panel (A549, KB, KBvin, DU145)
Protocol summary: SRB antiproliferative activity, ranges over the HTCL panel
Assay type: cell-based
Experimental conditions: read-out: GI50 range over HTCL panel
Reported metric: GI50

Compound	GI50
COc1ccc2c(c1)CCCN(c1nc(C)nc3ccccc13)C2	5450 to 19600 nM
Cc1nc(N2CCCc3cc(Br)ccc32)c2ccccc2n1	169 to 211 nM
COc1ccc2c(c1)C(O)CCN2c1nc(C)nc2ccccc12 (stereo not shown)	17 to 19 nM

Turning now to a further record.
### Prompt Field: GI50 (human tumor cell line (HTCL) panel (A549, KB, KBvin, DU145)). Entry: `COc1ccc2c(c1)OCCN2c1nc(Cl)nc2ccccc12`
### Response 153 to 211 nM
